Provenance of the data: PubChem BioAssay AID1376

Biological target: Bifunctional protein GlmU (Mycobacterium tuberculosis (strain ATCC 25618 / H37Rv))
Test: inhibition of mycobacterial GlmU enzyme – biochemical, glucosamine-1-phosphate acetyltransferase (AID 1376);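 also: 0% = complete reaction with vehicle and 100% = reaction without substrate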
Conditions: M. tuberculosis GlmU acetyltransferase enzyme assay;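 tested at 30 µM in the primary screen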
Hit rate of the full screen: of about 220,000 compounds, about 530 (0.24%) were called active. Rule as the data show it: active = inhibition above about 13%; inconclusive = no clear call, values can overlap the other calls; inactive = below that. Only a selection was taken, and actives are over-represented in it overall. Measured potencies and affinities stand elsewhere.
Answer with one of the outcomes active, inactive

Ask: How was CCN(CC(=O)Nc1ccc(OC(F)F)cc1)C1CCCCC1 classified in this test?
Reply: inactive

====

Field: inhibition. Provide a value for each of the compounds that follow.
Target: Bifunctional protein GlmU (Mycobacterium tuberculosis (strain ATCC 25618 / H37Rv))
Assay: inhibition of mycobacterial GlmU enzyme – biochemical, glucosamine-1-phosphate acetyltransferase (AID 1376);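 also: 0% = complete reaction with vehicle and 100% = reaction without substrate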
Conditions: M. tuberculosis GlmU acetyltransferase enzyme assay; active compounds read high;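 tested at 30 µM in the primary screen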
The whole screen tested about 220,000 compounds, of which about 530 (0.24%) were called active. This excerpt belongs to a sample that is enriched for actives. Entries with a potency or affinity are not part of this list.

>  <compound>
Cc1cc(C)n2nc(SCCC(=O)NCCc3ccccc3)nc2n1

>  <inhibition>
-3.62% (inactive)

$$$$
>  <compound>
COc1cc(N=c2ssnc2Cl)cc(OC)c1

>  <inhibition>
12.8% (inactive)

$$$$
>  <compound>
FC(F)Oc1ccc(NC(=S)NCCc2ccccn2)cc1

>  <inhibition>
-3.82% (inactive)

$$$$
>  <compound>
Cc1ccc(C(=O)OC2OC(=O)C(Cl)=C2N2CCOCC2)cc1 (configuration not stated)

>  <inhibition>
7.25% (inactive)

$$$$
>  <compound>
C/C(Cl)=C/Cn1c(NCCCn2ccnc2)nc2c1c(=O)[nH]c(=O)n2C

>  <inhibition>
-3.26% (inactive)

$$$$

Give one value of inhibition per listed compound.
1. O=C(NCc1cccs1)c1csc2c1CCCCC2
2. Cc1cc(C)c(NC2=NS(=O)(=O)c3ccccc32)c(C)c1
3. Cc1cccc(-n2c(-c3ccoc3C)n[nH]c2=S)c1
4. COc1cc(N=c2ssnc2Cl)cc(OC)c1OC
5. Cc1ccc(N=c2ssnc2Cl)cc1
6. Cc1cc(C)n2nc(C(=O)NCc3ccccc3)nc2n1
7. N#Cc1ccc(N=c2ssnc2Cl)cc1

Reply:
1. 1.69% (inactive)
2. 0.24% (inactive)
3. 11.9% (inactive)
4. 14.1% (active)
5. 17.6% (inactive)
6. -3.46% (inactive)
7. 18.4% (inactive)

====

Field: inhibition. Provide a value for each of the compounds that follow.
Molecular target: Bifunctional protein GlmU (Mycobacterium tuberculosis (strain ATCC 25618 / H37Rv))
Assay: inhibition of mycobacterial GlmU enzyme – biochemical, glucosamine-1-phosphate acetyltransferase (AID 1376);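 also: 0% = complete reaction with vehicle and 100% = reaction without substrate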
Conditions: M. tuberculosis GlmU acetyltransferase enzyme assay; active compounds read high;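 tested at 30 µM in the primary screen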
In all, about 220,000 compounds went through this assay and about 530 (0.24%) were called active. What follows is part of a selection rich in actives, with near analogues and random picks from the rest. Entries with a potency or affinity are not part of this list.
Give bare numbers, in %.

>  <compound>
Cc1ccc(-c2nnn(CC(=O)N(Cc3ccco3)C(C(=O)NC(C)(C)C)c3cccs3)n2)o1 (stereo unspecified)

>  <observed_property>
inhibition

>  <unit_spec>
%

>  <obs_value>
1.32

$$$$
>  <compound>
C=CCNC(=O)C1CC1(c1ccccc1)c1ccccc1 (stereo unspecified)

>  <observed_property>
inhibition

>  <unit_spec>
%

>  <obs_value>
4.25

$$$$
>  <compound>
O=C1c2ccccc2C(=O)N1CC(=O)N1c2ccccc2Sc2ccccc21

>  <observed_property>
inhibition

>  <unit_spec>
%

>  <obs_value>
-6.14

$$$$

Give one value of inhibition per listed compound.
1. CCCCn1c(SCC(=O)NCc2ccco2)nc2ccc(N3CCOCC3)cc2c1=O
2. Cc1cccc(OCc2nnc(SCc3cc(=O)n4cc(Br)ccc4n3)o2)c1
3. COc1cc(OC)c(OC)cc1CN1CCC(O)CC1
4. Cc1ccc(-c2nnn(CC(=O)N(Cc3ccco3)C(C(=O)NC(C)(C)C)c3ccncc3)n2)o1 (stereo unspecified)

Reply:
5.76
7.11
0.1
6.52

Give one value of inhibition per listed compound.
1. O=C(O)C1Cc2ccccc2CN1C(=O)COc1ccc(Br)cc1 (stereo unspecified)
2. CCCCNC(=O)CSc1nc2ccc(N3CCOCC3)cc2c(=O)n1CCc1ccccc1
3. O=c1ccnc2n1COCS2
4. N#CCCN(Cc1cccnc1)C(=S)NC(=O)C1CC1

Reply:
1: 12.6; 2: -5.21; 3: -2.85; 4: -4.01
